Sourced from patent US20190315775A1

Consider the following compounds; for each one, report its IC50.
Test system: Li-7 (human liver cancer cells)
run_description: WST-1 proliferation assay (Example 10), Li-7
Assay type: cell-based
reported_conditions: U-7 (head of Table 4), WST-1, 48 hours
Express your answer as a number followed by its unit.

Ask | Request the reported IC50 associated with "COCCOCCOCCOCCOCCOCCOCCOCCOCCOCCOCCOCCOc1cc2c(cc1N)C(=O)N(c1c(C(C)C)cccc1C(C)C)C2=O"
Reply | 87 µM

Ask | Tell me the measured IC50 of COCCOCCOCCOCCOCCOCCOCCOCCOCCOCCOCCOCCC(=O)OCCOc1cc2c(cc1N)C(=O)N(c1c(C(C)C)cccc1C(C)C)C2=O [PEG11(E)-TC11] , please.
Reply | 9.4 µM
